For each of the molecules below, state its activity at 5 µM.
experimental target: recombinant form of human aromatase (Homo sapiens)
Construct: gene CYP19A1; purified recombinant; assayed with equimolar human CPR; with NADPH--cytochrome P450 reductase
Sequence (P11511 1-503): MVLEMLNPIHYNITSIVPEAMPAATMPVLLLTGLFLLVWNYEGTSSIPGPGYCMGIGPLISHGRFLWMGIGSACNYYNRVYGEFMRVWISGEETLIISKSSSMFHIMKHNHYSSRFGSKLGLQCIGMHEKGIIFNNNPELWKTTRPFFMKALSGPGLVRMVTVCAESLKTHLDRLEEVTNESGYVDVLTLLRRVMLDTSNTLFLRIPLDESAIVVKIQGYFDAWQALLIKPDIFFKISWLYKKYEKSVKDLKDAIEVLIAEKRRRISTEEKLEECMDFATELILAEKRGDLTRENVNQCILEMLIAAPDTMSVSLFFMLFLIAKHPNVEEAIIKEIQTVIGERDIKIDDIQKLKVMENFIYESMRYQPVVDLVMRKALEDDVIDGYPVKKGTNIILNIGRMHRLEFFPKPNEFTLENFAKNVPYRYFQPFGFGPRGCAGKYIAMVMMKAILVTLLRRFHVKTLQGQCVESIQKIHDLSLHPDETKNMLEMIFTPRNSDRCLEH
Sequence (P16435 2-677 partner): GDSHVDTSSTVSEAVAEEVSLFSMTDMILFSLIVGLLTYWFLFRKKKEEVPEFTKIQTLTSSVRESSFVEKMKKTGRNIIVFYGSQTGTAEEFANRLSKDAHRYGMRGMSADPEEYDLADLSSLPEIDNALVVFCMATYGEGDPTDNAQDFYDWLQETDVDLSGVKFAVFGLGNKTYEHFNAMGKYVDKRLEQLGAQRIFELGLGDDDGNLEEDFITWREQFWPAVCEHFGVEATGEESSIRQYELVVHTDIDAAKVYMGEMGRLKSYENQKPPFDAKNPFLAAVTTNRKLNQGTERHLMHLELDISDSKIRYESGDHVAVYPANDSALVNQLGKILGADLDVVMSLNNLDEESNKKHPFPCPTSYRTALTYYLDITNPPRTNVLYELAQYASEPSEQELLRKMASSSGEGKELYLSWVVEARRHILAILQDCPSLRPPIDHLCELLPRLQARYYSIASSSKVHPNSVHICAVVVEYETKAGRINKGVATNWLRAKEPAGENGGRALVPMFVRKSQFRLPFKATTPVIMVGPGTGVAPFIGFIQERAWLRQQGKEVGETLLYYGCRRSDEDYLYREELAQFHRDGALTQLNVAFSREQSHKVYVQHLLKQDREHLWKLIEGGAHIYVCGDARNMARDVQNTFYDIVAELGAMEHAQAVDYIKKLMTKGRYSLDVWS
method description: estrone ELISA of aromatase reaction
Assay type: biochemical
setup conditions: read-out: Relative Activity (% of C+) / 5 × 10^-6 M
Your answer should be a plain number; it is taken to be in %.

input: Specify measured activity at 5 µM for C/C(=N\C#N)N(C)Cc1ccc(Cl)nc1 [Acetamiprid] .
output: 87.5

input: Tell me measured activity at 5 µM for CC(C)Oc1cc(-n2nc(C(C)(C)C)oc2=O)c(Cl)cc1Cl [Oxadiazon] please.
output: 101

input: Output activity at 5 µM of CN1COCN(Cc2cnc(Cl)s2)C1=N[N+](=O)[O-] [Thiamethoxam]
output: 95.6

input: Give activity at 5 µM for the following molecule: CN/C(=N\[N+](=O)[O-])NCc1cnc(Cl)s1 [Clothianidin]
output: 97.9

input: Give reported activity at 5 µM value for CNC(=O)Oc1cc(C)c(SC)c(C)c1 [Methiocarb]
output: 90.9
